All figures here come from paper PMC5007270.

Experiment: PET/CT biodistribution (%ID/l, SUV)
Type: in vivo, human
Conditions: human, liver, intravenous, total radioactivity, average of all patients, last scan (75 ± 4 min p.i.); read-out: mean SUV in the liver, last image
Description: For each patient, a total of three PET/CT scans were performed using a Discovery PET/CT 690 VCT scanner (GE Healthcare, Milwaukee, WI, USA). The patients were allowed to urinate after the second scan and a sample of the urine was collected for metabolic analysis. […]
measurementLabel: SUV (SUV)
Numbers only, in SUV.

Query :: Which SUV reading was recorded for the molecule N=C(N)NCCC[C@@H]1NC(=O)[C@H](CCCCNC(=O)CCC(C(=O)O)N2CCN(CC(=O)O)CCN(CC(=O)O)CC2)NC(=O)[C@@H](Cc2ccccc2)NC(=O)[C@H](CC(=O)O)NC(=O)CNC1=O (stereo partly shown) [[^68Ga]NODAGA-RGD, metal not drawn] ?
Result :: 2.9

* * *

assay: PET/CT biodistribution (%ID/l, SUV); type: in vivo, human; details: human, bladder, intravenous, total radioactivity, 60 min p.i., patients; read-out: median SUV, bladder
measurementLabel: SUV at 1 h (SUV)
Numbers only, in SUV.

Query :: Requested field: SUV at 1 h. Item: N=C(N)NCCC[C@@H]1NC(=O)[C@H](CCCCNC(=O)CCC(C(=O)O)N2CCN(CC(=O)O)CCN(CC(=O)O)CC2)NC(=O)[C@@H](Cc2ccccc2)NC(=O)[C@H](CC(=O)O)NC(=O)CNC1=O (stereo partly shown) [[^68Ga]NODAGA-RGD, metal not drawn]
Result :: 31

* * *

test: PET/CT biodistribution (%ID/l, SUV); type: in vivo, human; conditions: human, kidneys, intravenous, total radioactivity, 60 min p.i., patients; read-out: median SUV, kidneys
measurementLabel: SUV at 1 h (SUV)
Give bare numbers, in SUV.

Query :: # input compound: N=C(N)NCCC[C@@H]1NC(=O)[C@H](CCCCNC(=O)CCC(C(=O)O)N2CCN(CC(=O)O)CCN(CC(=O)O)CC2)NC(=O)[C@@H](Cc2ccccc2)NC(=O)[C@H](CC(=O)O)NC(=O)CNC1=O (stereo partly shown) [[^68Ga]NODAGA-RGD, metal not drawn] ; wanted: its SUV at 1 h
Result :: 4.5

* * *

assay: PET/CT biodistribution (%ID/l, SUV); type: in vivo, human; conditions: human, muscle, total radioactivity; 60 min p.i., patients, PET VOI; read-out: %ID/l, muscle tissue
measurementLabel: tissue uptake dose at 1 h (%ID)
Answers are plain numbers, in %ID.

Query :: Given the entry N=C(N)NCCC[C@@H]1NC(=O)[C@H](CCCCNC(=O)CCC(C(=O)O)N2CCN(CC(=O)O)CCN(CC(=O)O)CC2)NC(=O)[C@@H](Cc2ccccc2)NC(=O)[C@H](CC(=O)O)NC(=O)CNC1=O (stereo partly shown) [[^68Ga]NODAGA-RGD, metal not drawn] , report its measured tissue uptake dose at 1 h.
Result :: 0.16

* * *

test: PET/CT biodistribution (%ID/l, SUV); assay type: in vivo, human; conditions: human, lung, intravenous, total radioactivity, 60 min p.i., patients; read-out: median SUV, lung
measurementLabel: SUV at 1 h (SUV)
Give bare numbers, in SUV.

Query :: Look up SUV at 1 h for this compound: N=C(N)NCCC[C@@H]1NC(=O)[C@H](CCCCNC(=O)CCC(C(=O)O)N2CCN(CC(=O)O)CCN(CC(=O)O)CC2)NC(=O)[C@@H](Cc2ccccc2)NC(=O)[C@H](CC(=O)O)NC(=O)CNC1=O (stereo partly shown) [[^68Ga]NODAGA-RGD, metal not drawn]
Result :: 0.39
